experiment: Cytotoxicity assay (MTT); format: cell-based; conditions: mouse, RAW 264.7 macrophages, read-out: RAW 264.7 CC50 ± SE
ENDPOINT: CC50 at 48 h

# example entries with known answers
COc1ccc(C(=O)C=Cc2ccc([N+](=O)[O-])cc2)cc1 : 1150 µM
O=C(c1ccccc1)C(C(O)c1ccccc1Cl)C(O)c1ccccc1Cl (centres unmarked) : > 4000 µM
COc1ccc(C=CC(=O)c2ccc(Br)cc2)cc1OC : 75.1 µM

Lab note: `COc1ccc(/C=C/C(=O)c2ccccc2Cl)cc1` gave CC50 at 48 h of 3010 µM

Lab note: `O=C(C=Cc1ccc(F)cc1)c1ccccc1Cl` gave CC50 at 48 h of 479 µM

meta.source: paper PMC7841069
